Assay: Solubility of the compound in ethyl acetate
Type: physicochemical
endpoint-name: solubility

COCCCNC(=C\C(=O)/C=C/c1ccc(O)cc1)/C=C/c1ccc(O)cc1 | Insoluble
COCCNC(=C\C(=O)/C=C/c1ccc(O)cc1)/C=C/c1ccc(O)cc1 | Insoluble
COc1cc(/C=C/C(=O)/C=C(/C=C/c2ccc(O)c(OC)c2)NCCCO)ccc1O | Insoluble

----------
System: HepG2
Experiment: Induction of ROS generation in human HepG2 cells at 1 uM using DCFH-DA by fluorescence assay relative to control
Format: functional
In this section, each of the molecules is paired with its reported Activity.
Write the answer as a number in %, unit excluded.

Please review the following examples before continuing.
COc1cc(/C=C/C(=O)/C=C(/C=C/c2ccc(O)c(OC)c2)NCCCO)ccc1O | 90
O=C(/C=C(/C=C/c1ccc(O)cc1)NCCCO)/C=C/c1ccc(O)cc1 | 91.3
COCCCNC(=C\C(=O)/C=C/c1ccc(O)cc1)/C=C/c1ccc(O)cc1 | 79.5
COCCCNC(=C\C(=O)/C=C/c1ccc(O)c(OC)c1)/C=C/c1ccc(O)c(OC)c1 | 68.5
COc1cc(/C=C/C(=O)/C=C(/C=C/c2ccc(O)c(OC)c2)NCCO)ccc1O | 86.3

// returns reported Activity for input COCCNC(=C\C(=O)/C=C/c1ccc(O)cc1)/C=C/c1ccc(O)cc1
76.4

// returns reported Activity for input COCCNC(=C\C(=O)/C=C/c1ccc(O)c(OC)c1)/C=C/c1ccc(O)c(OC)c1
83.8

// returns reported Activity for input O=C(/C=C(/C=C/c1ccc(O)cc1)NCCO)/C=C/c1ccc(O)cc1
82.7

// returns reported Activity for input COc1cc(/C=C/C2=CC(=O)CC(c3ccc(O)c(OC)c3)N2CCCO)ccc1O (stereo not drawn)
95.2

// returns reported Activity for input COCCCN1C(/C=C/c2ccc(O)cc2)=CC(=O)CC1c1ccc(O)cc1 (stereo not drawn)
93.2

// returns reported Activity for input O=C(/C=C/c1ccc(O)cc1)CC(=O)/C=C/c1ccc(O)cc1
88.8

// returns reported Activity for input O=C1C=C(/C=C/c2ccc(O)cc2)N(CCO)C(c2ccc(O)cc2)C1 (stereo not drawn)
105.4

// returns reported Activity for input COc1cc(/C=C/C(=O)CC(=O)/C=C/c2ccc(O)c(OC)c2)ccc1O
93.7

----------
In this section, each of the compounds is paired with its reported Activity.
Test: Induction of ROS generation in CHOK1 cells at 1 uM using DCFH-DA by fluorescence assay relative to control
Format: cell-based, Cricetulus griseus
Settings: chinese hamster, cho-k1, 1 µM
Write the answer as a number in %, unit excluded.

Please review the following examples before continuing.
O=C(/C=C(/C=C/c1ccc(O)cc1)NCCCO)/C=C/c1ccc(O)cc1 | 86.4
COCCNC(=C\C(=O)/C=C/c1ccc(O)cc1)/C=C/c1ccc(O)cc1 | 82.5
COc1cc(/C=C/C(=O)/C=C(/C=C/c2ccc(O)c(OC)c2)NCCCO)ccc1O | 90.4

// returns reported Activity for input O=C(/C=C(/C=C/c1ccc(O)cc1)NCCO)/C=C/c1ccc(O)cc1
93.4

----------
Experiment: Aqueous solubility of the compound in sodium phosphate buffer at pH 6.8 after 90 mins by shake flask method
Assay type: physicochemical
Given measured solubility thermodynamic at 1.5 h, output Yes if it is greater than or equal to 30 µM and No if not.

Reference set (3 entries):
COCCCNC(=C\C(=O)/C=C/c1ccc(O)c(OC)c1)/C=C/c1ccc(O)c(OC)c1 | No
COCCCNC(=C\C(=O)/C=C/c1ccc(O)cc1)/C=C/c1ccc(O)cc1 | No
COc1cc(/C=C/C2=CC(=O)CC(c3ccc(O)c(OC)c3)N2CCCO)ccc1O (stereo not drawn) | Yes

Dear colleague, could you confirm whether O=C(/C=C(/C=C/c1ccc(O)cc1)NCCCO)/C=C/c1ccc(O)cc1 has solubility thermodynamic at 1.5 h at or above 30 µM?
Yes

Dear colleague, could you confirm whether COCCNC(=C\C(=O)/C=C/c1ccc(O)c(OC)c1)/C=C/c1ccc(O)c(OC)c1 has solubility thermodynamic at 1.5 h at or above 30 µM?
No

Dear colleague, could you confirm whether COc1cc(/C=C/C(=O)/C=C(/C=C/c2ccc(O)c(OC)c2)NCCCO)ccc1O has solubility thermodynamic at 1.5 h at or above 30 µM?
No

Dear colleague, could you confirm whether COCCNC(=C\C(=O)/C=C/c1ccc(O)cc1)/C=C/c1ccc(O)cc1 has solubility thermodynamic at 1.5 h at or above 30 µM?
Yes

Dear colleague, could you confirm whether O=C(/C=C(/C=C/c1ccc(O)cc1)NCCO)/C=C/c1ccc(O)cc1 has solubility thermodynamic at 1.5 h at or above 30 µM?
Yes

Dear colleague, could you confirm whether COCCCN1C(/C=C/c2ccc(O)cc2)=CC(=O)CC1c1ccc(O)cc1 (stereo not drawn) has solubility thermodynamic at 1.5 h at or above 30 µM?
No

Dear colleague, could you confirm whether COc1cc(/C=C/C(=O)CC(=O)/C=C/c2ccc(O)c(OC)c2)ccc1O has solubility thermodynamic at 1.5 h at or above 30 µM?
No

Dear colleague, could you confirm whether COc1cc(/C=C/C(=O)/C=C(/C=C/c2ccc(O)c(OC)c2)NCCO)ccc1O has solubility thermodynamic at 1.5 h at or above 30 µM?
No

Dear colleague, could you confirm whether O=C(/C=C/c1ccc(O)cc1)CC(=O)/C=C/c1ccc(O)cc1 has solubility thermodynamic at 1.5 h at or above 30 µM?
No
